Target: Mot3 (UniProt P54785)
Sequence: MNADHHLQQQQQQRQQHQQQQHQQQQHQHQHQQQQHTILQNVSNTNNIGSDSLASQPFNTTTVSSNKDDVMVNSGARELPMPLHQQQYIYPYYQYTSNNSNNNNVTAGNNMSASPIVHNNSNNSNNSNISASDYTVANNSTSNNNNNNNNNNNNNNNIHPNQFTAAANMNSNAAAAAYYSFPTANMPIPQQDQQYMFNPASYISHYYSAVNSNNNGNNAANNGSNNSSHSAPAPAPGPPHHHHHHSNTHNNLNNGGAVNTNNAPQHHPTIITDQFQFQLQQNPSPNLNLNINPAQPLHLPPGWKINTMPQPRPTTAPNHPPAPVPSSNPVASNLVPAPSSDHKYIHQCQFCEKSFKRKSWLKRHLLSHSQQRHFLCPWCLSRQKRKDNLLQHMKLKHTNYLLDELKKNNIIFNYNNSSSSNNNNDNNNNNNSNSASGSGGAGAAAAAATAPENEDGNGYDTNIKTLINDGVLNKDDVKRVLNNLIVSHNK
Experiment: PBM E-score (8-mer binding enrichment) (E-score (-0.5 to 0.5)); higher = stronger / more preferred TF binding
Details: protein concentration: 200 nM; construct: GST-full length
In all, about 33,000 sequences were measured (“E-score (-0.5 to 0.5)”: median about -0.035, highest 2% from about 0.34 on). The full list was thinned out, with the highest values kept by preference.
Assign Yes to entries whose PBM E-score meets or exceeds 0.07; assign No to the rest.

Reference set (10 entries):
seq.text	class.name
CACAGAAG	No
ACAGCGGC	No
CGAGAACG	No
GACGTGTA	Yes
AGAAAAAT	Yes
CCATCTAG	No
GGGCACCC	No
CAGCGAGG	No
CTAACTCC	No
ACGAAAAT	Yes

Request: Given AGGAAAAT , state whether its PBM E-score is at least 0.07.
Result: Yes

Request: Given AAGCACCG , state whether its PBM E-score is at least 0.07.
Result: No

Request: Given CACGTGTC , state whether its PBM E-score is at least 0.07.
Result: Yes

Request: Given AACGTGTC , state whether its PBM E-score is at least 0.07.
Result: Yes

Request: Given GACTGTAA , state whether its PBM E-score is at least 0.07.
Result: Yes

Request: Given GAATCGGC , state whether its PBM E-score is at least 0.07.
Result: No

Request: Given ACGCACCT , state whether its PBM E-score is at least 0.07.
Result: Yes

Request: Given TATCTTAA , state whether its PBM E-score is at least 0.07.
Result: Yes

* * *

Biological target: Mot3 (UniProt P54785)
Sequence: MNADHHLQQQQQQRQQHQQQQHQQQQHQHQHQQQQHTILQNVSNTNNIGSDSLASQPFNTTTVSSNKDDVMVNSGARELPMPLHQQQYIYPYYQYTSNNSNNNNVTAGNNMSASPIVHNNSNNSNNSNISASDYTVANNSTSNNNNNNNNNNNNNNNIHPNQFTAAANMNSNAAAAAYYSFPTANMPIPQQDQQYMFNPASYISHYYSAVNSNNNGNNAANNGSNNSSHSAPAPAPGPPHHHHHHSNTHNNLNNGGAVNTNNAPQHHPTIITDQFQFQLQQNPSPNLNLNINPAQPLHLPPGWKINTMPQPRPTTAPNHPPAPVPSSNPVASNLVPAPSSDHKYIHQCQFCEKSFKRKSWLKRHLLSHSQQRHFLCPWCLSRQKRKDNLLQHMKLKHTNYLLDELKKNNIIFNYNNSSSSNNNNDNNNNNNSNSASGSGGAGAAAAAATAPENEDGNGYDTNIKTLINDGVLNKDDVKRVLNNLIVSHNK
Experiment: PBM E-score (8-mer binding enrichment) (E-score (-0.5 to 0.5)); higher = stronger / more preferred TF binding
Conditions: protein concentration: 200 nM; construct: GST-full length
Whole data set: some 33,000 sequences, median “E-score (-0.5 to 0.5)” near -0.035, cut for the highest 2% near 0.34. What follows is part of a selection rich in the highest values, with near analogues and random picks from the rest.
# maps each entry to its PBM E-score
Could you keep your reply to the number by itself?

seq.text	PBM E-score
GGAGACCC	-0.0421
GGGTAAGA	-0.146
AATTTTAT	0.0903
AAGGAAGA	-0.0092

Request: Reported PBM E-score, sequence CAGAAACG : ____
Result: 0.0904

Request: Reported PBM E-score, sequence TATGTACA : ____
Result: 0.353

* * *

# maps each entry to its PBM E-score
Biological target: Mot3 (UniProt P54785)
Sequence: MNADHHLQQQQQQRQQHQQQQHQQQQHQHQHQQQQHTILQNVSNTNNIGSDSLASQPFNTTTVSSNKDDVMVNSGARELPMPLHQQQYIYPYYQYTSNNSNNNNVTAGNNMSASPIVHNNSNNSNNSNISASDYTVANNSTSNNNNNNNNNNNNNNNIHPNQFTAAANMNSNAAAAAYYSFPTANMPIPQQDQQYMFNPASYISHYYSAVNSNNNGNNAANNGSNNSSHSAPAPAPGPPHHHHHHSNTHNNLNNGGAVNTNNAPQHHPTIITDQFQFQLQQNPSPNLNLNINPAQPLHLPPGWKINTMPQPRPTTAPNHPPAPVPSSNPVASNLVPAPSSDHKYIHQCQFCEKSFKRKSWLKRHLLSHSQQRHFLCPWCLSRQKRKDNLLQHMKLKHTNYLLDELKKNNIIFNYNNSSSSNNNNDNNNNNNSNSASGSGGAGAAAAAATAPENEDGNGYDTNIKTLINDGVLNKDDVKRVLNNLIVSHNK
Test: PBM E-score (8-mer binding enrichment) (E-score (-0.5 to 0.5)); higher = stronger / more preferred TF binding
Settings: protein concentration: 200 nM; construct: GST-full length
Over roughly 33,000 sequences, “E-score (-0.5 to 0.5)” has its median near -0.035; the highest 2% begin near 0.34. The sample as a whole holds a higher share of the highest values than the screen did.

seq.text	PBM E-score
GACTAATC	-0.182
ACGCACGG	0.0438
CTGAACAG	-0.0714
AGGTTTGG	-0.141
ACAACGGG	0.07

Request: Reported PBM E-score, sequence ATACACAC : ____
Result: 0.326

* * *

Molecular target: Mot3 (UniProt P54785)
Sequence: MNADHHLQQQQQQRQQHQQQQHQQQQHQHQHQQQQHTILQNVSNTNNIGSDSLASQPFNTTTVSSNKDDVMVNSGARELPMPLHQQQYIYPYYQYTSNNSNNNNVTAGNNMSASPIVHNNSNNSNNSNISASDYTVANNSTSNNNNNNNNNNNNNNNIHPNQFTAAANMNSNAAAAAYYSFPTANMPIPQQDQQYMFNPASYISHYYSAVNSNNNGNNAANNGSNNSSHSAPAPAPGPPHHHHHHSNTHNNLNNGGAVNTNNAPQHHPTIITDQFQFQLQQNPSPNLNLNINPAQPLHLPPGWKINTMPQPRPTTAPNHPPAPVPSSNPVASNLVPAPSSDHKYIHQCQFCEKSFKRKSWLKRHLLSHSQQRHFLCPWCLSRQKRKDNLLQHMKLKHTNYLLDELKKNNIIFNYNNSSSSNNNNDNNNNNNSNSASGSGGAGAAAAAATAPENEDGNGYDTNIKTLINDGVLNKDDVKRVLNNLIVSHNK
Assay: PBM E-score (8-mer binding enrichment) (E-score (-0.5 to 0.5)); higher = stronger / more preferred TF binding
Conditions: protein concentration: 200 nM; construct: GST-full length
Over roughly 33,000 sequences, “E-score (-0.5 to 0.5)” has its median near -0.035; the highest 2% begin near 0.34. What follows is part of a selection rich in the highest values, with near analogues and random picks from the rest.
Assign 1 to entries whose PBM E-score meets or exceeds -0.1; assign 0 to the rest.

Reference set (8 entries):
seq.text	system.tested	class.name
GACCTCGA	Mot3 (UniProt P54785)	0
CGTGTTGC	Mot3 (UniProt P54785)	1
GTTACCTA	Mot3 (UniProt P54785)	1
CGCTCAAG	Mot3 (UniProt P54785)	1
AGTTCGAC	Mot3 (UniProt P54785)	1
CTCTCTGC	Mot3 (UniProt P54785)	0
ACCTGAAG	Mot3 (UniProt P54785)	0
AATTTCCC	Mot3 (UniProt P54785)	0

Kindly consider the entry below.
Request: Given AACAACAC , state whether its PBM E-score is at least -0.1.
Result: 1

* * *

Target: Mot3 (UniProt P54785)
Sequence: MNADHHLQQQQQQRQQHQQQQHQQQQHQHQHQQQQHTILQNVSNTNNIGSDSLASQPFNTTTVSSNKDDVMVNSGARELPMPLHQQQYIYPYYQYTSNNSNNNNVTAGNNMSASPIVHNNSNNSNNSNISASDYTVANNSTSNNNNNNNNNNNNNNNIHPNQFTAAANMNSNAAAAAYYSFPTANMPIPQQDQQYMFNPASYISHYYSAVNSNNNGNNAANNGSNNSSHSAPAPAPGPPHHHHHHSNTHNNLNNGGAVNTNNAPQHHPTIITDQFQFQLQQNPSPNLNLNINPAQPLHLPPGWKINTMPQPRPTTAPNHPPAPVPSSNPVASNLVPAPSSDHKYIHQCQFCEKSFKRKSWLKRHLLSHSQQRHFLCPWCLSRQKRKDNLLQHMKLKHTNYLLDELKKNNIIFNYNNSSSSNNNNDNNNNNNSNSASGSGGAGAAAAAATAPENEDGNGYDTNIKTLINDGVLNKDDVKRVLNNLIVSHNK
Assay: PBM E-score (8-mer binding enrichment) (E-score (-0.5 to 0.5)); higher = stronger / more preferred TF binding
Details: protein concentration: 200 nM; construct: GST-full length
In all, about 33,000 sequences were measured (“E-score (-0.5 to 0.5)”: median about -0.035, highest 2% from about 0.34 on). For the sample, the highest values were picked, then their nearest neighbours and some sequences at random.
# maps each entry to its PBM E-score
Could you keep your reply to the number by itself?

Example cases with answers are listed next.
seq.text	endpoint.label	numeric.result
CTGTTAAA	PBM E-score	0.238
AAGGAAAG	PBM E-score	0.441
TTGTTAAA	PBM E-score	0.256
CAGAAAAC	PBM E-score	0.152
GGGGGGAA	PBM E-score	-0.375

Request: Reported PBM E-score, sequence CAGGAAAC : ____
Result: 0.445

Request: Reported PBM E-score, sequence GTGTTAAA : ____
Result: 0.384

Request: Reported PBM E-score, sequence TCTGGTCA : ____
Result: -0.0723

Request: Reported PBM E-score, sequence CCACAAGG : ____
Result: 0.094

Request: Reported PBM E-score, sequence ATGTTACC : ____
Result: 0.237

Request: Reported PBM E-score, sequence ATCCACCC : ____
Result: -0.246

Request: Reported PBM E-score, sequence AAGGAAAT : ____
Result: 0.426
